Where do the numbers come from? From patent US20170190671A1.

test system: soybean (Glycine max); assay: Test C postemergence; assay type: in vivo; conditions: Glycine max, post-emergence; Postemergence, 31 g ai/ha, scale 0 to 100; read-out: Plant response rating, Soybean
Description: […]
Test readout: plant injury at 31 g/ha

> print(dat)
                                   molecule             test.readout  experimental.result
1   N#Cc1cccc(Oc2ncc(Cl)cn2)c1Oc1ccc(Cl)cn1  plant injury at 31 g/ha                  70%
2     Fc1cnc(Oc2c(Br)cccc2Oc2ncc(Cl)cn2)nc1  plant injury at 31 g/ha                  40%
3     Fc1cccc(Oc2ncc(Cl)cn2)c1Oc1ncc(Cl)cn1  plant injury at 31 g/ha                  65%
4    Fc1cnc(Oc2c(F)ccc(F)c2Oc2ncc(F)cn2)nc1  plant injury at 31 g/ha                  70%
5  Fc1cccc(Oc2ncc(C(F)(F)F)cn2)c1Oc1ncc(Cl)cn1  plant injury at 31 g/ha                  55%

* * *

tested on: corn (Zea mays); assay: Test A postemergence; type: in vivo; conditions: Zea mays, post-emergence, 240 h, 125 g ai/ha, 0 to 100 scale
Short version: Corn plant response rating (crop injury, 0 = no effect, 100 = complete kill) at 125 g/ha at least 50% is y, less is n.

> print(dat)
                                    molecule  answer.label
 1   N#Cc1cccc(Oc2ncc(Cl)cn2)c1Oc1ccc(Br)cn1             n
 2    FCc1cccc(Oc2ncc(Cl)cn2)c1Oc1ncc(Cl)cn1             y
 3   N#Cc1cccc(Oc2ncc(Cl)cn2)c1Oc1ccc(Cl)cn1             n
 4  Fc1cccc(Oc2ncc(C(F)(F)F)cn2)c1Oc1ncc(Cl)cn1             y
 5   N#Cc1cccc(Oc2ncc(Cl)cn2)c1Oc1cccc(Cl)c1             n
 6   Fc1cnc(Oc2c(F)ccc(F)c2Oc2ncc(Cl)cn2)nc1             n
 7   N#Cc1cccc(Oc2ncc(Cl)cn2)c1Oc1ncc(Br)cn1             y
 8       N#Cc1cccc(Oc2ncc(Cl)cn2)c1Oc1cccnc1             n
 9   N#Cc1cccc(Oc2ncc(Br)cn2)c1Oc1ncc(Br)cn1             n
10   N#Cc1cccc(Oc2ncc(Cl)cn2)c1Oc1ccc(Cl)cc1             n
11  FC(F)c1cccc(Oc2ncc(Cl)cn2)c1Oc1ncc(Cl)cn1             y

* * *

Below, each of the compounds is paired with its reported Plant response rating, Foxtail, Green value.
system: green foxtail (Setaria viridis); experiment: Test E preemergence; format: in vivo; conditions: 125 g ai/ha, scale 0 to 100
From the text: […]
Test readout: Plant response rating, Foxtail, Green

> print(dat)
                                   compound                           target                           test.readout  experimental.result
1  Clc1cnc(Oc2cccc(Br)c2Oc2ncc(Cl)cn2)nc1 [Compound 19]  green foxtail (Setaria viridis)  Plant response rating, Foxtail, Green                  100
2  Fc1cccc(Oc2ncc(C(F)(F)F)cn2)c1Oc1ncc(Cl)cn1 [Compound 42]  green foxtail (Setaria viridis)  Plant response rating, Foxtail, Green                  100
3  Fc1ccc(F)c(Oc2ncc(Cl)cn2)c1Oc1ncc(Cl)cn1 [Compound 34]  green foxtail (Setaria viridis)  Plant response rating, Foxtail, Green                   70
4  Fc1cccc(Oc2ncc(Cl)cn2)c1Oc1ncc(C(F)(F)F)cn1 [Compound 43]  green foxtail (Setaria viridis)  Plant response rating, Foxtail, Green                  100
